- TEST DESCRIPTION: Selectivity index, ratio of IC50 for cytotoxicity against bovine MDBK cells to IC50 for Trypanocidal activity against Trypanosoma evansi
So basically: selectivity ratio at 1 or higher? That is 1. Lower than 1? That is 0.

Completed entries (count: 10):
INSERT INTO results (molecular_string, qualitative_label) VALUES
  ('COc1ccc(-c2cnc(-c3cccc(OC)c3OC)o2)c(OC)c1', 1),
  ('COc1ccccc1-c1coc(-c2cccc(OC)c2OC)n1', 1),
  ('COc1ccccc1-c1nnc(-c2cccc(OC)c2OC)s1', 1),
  ('Oc1ccccc1-c1cnc(-c2cccc(O)c2O)o1', 1),
  ('Oc1ccc(O)c(-c2cnc(-c3ccccc3)o2)c1', 0),
  ('CC(=O)Oc1ccc(OC(C)=O)c(-c2ncc(-c3ccccc3OC(C)=O)o2)c1', 1),
  ('COc1cccc(-c2cnc(-c3cccc(OC)c3OC)o2)c1OC', 1),
  ('COc1ccc(-c2cnc(-c3ccc(OC)c(OC)c3OC)o2)c(OC)c1OC', 0),
  ('Oc1ccc(O)c(-c2ncc(-c3ccccc3O)o2)c1', 1),
  ('COc1cccc(-c2ncc(-c3ccccc3OCc3ccccc3)o2)c1OC', 1);

Ask: Assess whether reported selectivity ratio for Oc1ccccc1-c1cnc(-c2cccc(O)c2O)s1 sits at 1 or higher.
Result: 1
